System: intracellular proteome of ENR+CD and ENR organoids
Assay: LC-MS/MS TMT proteomics of ENR+CD versus ENR organoids
Format: cell-based, C57BL/6 mice
Conditions: up = enriched in ENR+CD, down = enriched in ENR; FDR<0.05 and log fold change cut-off
Text: Because PCs are highly secretory, protein-rich cells, Applicants sought to assess the total intracellular proteome between conditions through liquid chromatography mass spectrometry (LC-MS/MS)-based proteomics. Applicants quantified relative protein abundance across eight samples using isobaric mass tag labeling from four ENR and four ENR+CD samples (M1-1 through M2-2, first digit denotes biological donor, second digit denotes technical replicate) (FIG. 3A). […]

[
  {
    "Molecule": "Q3V3I2 (protein, UniProt Q3V3I2 1-354, looked up, full-length) MGSGISSESKESARRSKELEKKLQEDAERDARTVKLLLLGAGESGKSTIVKQMKIIHKNGYSKQECMEFKAVIYSNTLQSILAIVKAMATLGIDYVNPRSREDQEQLHSMANTLEDGDMTPQLAEIIKRLWGDPGIQACFERASEYQLNDSAAYYLNDLDRLTAPGYVPNEQDVLHSRVKTTGIIETQFSFKDLNFRMFDVGGQRSERKKWIHCFEGVTCIIFCAALSAYDMVLVEDEEVNRMHESLHLFNSICNHKYFATTSIVLFLNKKDLFQEKVAKVHLSICFPEYTGPNTFEDAGNYIKNQFLDLNLKKEDKEIYSHMTCATDTQNVKFVFDAVTDIIIKENLKDCGLF",
    "change": "down"
  },
  {
    "Molecule": "Q9CVI2 (protein, UniProt Q9CVI2 1-245, looked up, full-length) MGKRDNRVAYMNPIAMARSRGPIQSSGPTIQDYLNRPRPTWEEVKEQLEKKKKGSKALAEFEEKMNENWKKELEKHREKLLSGNESSSKKRQKKKKEKKKSGRYSSSSSSSSDSSSSSSDSEDEDKKQTKRRKKKKSRCHKSPESSGSDSASDSKDGSKKKKKSKDVTEREKDTKGLSKKRKMYEDKPLSSESLSESDCGEVQAKRKKSGEERERTTDKAKKRRKHKKHSKKKKKKAASSSSDSP",
    "change": "down"
  }
]
